All figures here come from patent US20240117038A1.

Parameter: pIC50. Scope: all listed entries.
target: T1, human CX3CR1 (human, UniProt P49238 1-355)
T1 construct: Overexpressed on CHO K1, Ba/F3 or HEK293T cells; also called huCX3CR1; hCX3CR1
T1 sequence: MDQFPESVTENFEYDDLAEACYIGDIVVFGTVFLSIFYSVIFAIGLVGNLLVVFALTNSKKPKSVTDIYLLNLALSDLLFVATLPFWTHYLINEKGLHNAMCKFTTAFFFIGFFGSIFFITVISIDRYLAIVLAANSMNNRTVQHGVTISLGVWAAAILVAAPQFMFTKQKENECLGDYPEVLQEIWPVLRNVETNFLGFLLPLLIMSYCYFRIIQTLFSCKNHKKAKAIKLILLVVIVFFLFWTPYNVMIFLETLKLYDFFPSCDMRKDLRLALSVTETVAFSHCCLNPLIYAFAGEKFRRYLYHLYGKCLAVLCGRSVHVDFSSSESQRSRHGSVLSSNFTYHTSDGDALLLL
experiment-description: competition flow cytometry vs soluble huCX3CL1-AF647 on CHO K1 huCX3CR1 cells, 30 uM HSA
# pIC50: negative log10 of molar concentration; output just the value

Below: 2 binders and their reported pIC50.
A041600034 (VHH, Trivalent ISVD construct; also called 54A12_SO (E1D)-9GS-ALB23002-9GS-66B02_SO-A) DVQLVESGGGSVQPGGSLRLSCAASGSIFSSTAMAWYRQAPGKQRDLVAVISTVGITKYADSVKGRFTISRDNAKNTVYLQMNSLRPEDTALYYCTSDARRGWDTRYWGQGTLVTVSSGGGGSGGGSEVQLVESGGGVVQPGGSLRLSCAASGFTFRSFGMSWVRQAPGKGPEWVSSISGSGSDTLYADSVKGRFTISRDNSKNTLYLQMNSLRPEDTALYYCTIGGSLSRSSQGTLVTVSSGGGGSGGGSEVQLVESGGGSVQPGGSLRLSCAASGSIFSSTAMAWYRQAPGKRRDLVAAINTVGVTKYADSVKGRFTISRDNAKNTVYLQMNSLRPEDTALYYCTSDPRRGWDTRYWGQGTLVTVSSA | 8.35
A041600042 (VHH, Trivalent ISVD construct (two anti-CX3CR1 ISVDs, one anti-albumin ISVD), C-terminal alanine included in the entry; also called 66B02_SO (E1D)-20GS-66B02_SO-20GS-ALB23002-A) DVQLVESGGGSVQPGGSLRLSCAASGSIFSSTAMAWYRQAPGKRRDLVAAINTVGVTKYADSVKGRFTISRDNAKNTVYLQMNSLRPEDTALYYCTSDPRRGWDTRYWGQGTLVTVSSGGGGSGGGGSGGGGSGGGGSEVQLVESGGGSVQPGGSLRLSCAASGSIFSSTAMAWYRQAPGKRRDLVAAINTVGVTKYADSVKGRFTISRDNAKNTVYLQMNSLRPEDTALYYCTSDPRRGWDTRYWGQGTLVTVSSGGGGSGGGGSGGGGSGGGGSEVQLVESGGGVVQPGGSLRLSCAASGFTFRSFGMSWVRQAPGKGPEWVSSISGSGSDTLYADSVKGRFTISRDNSKNTLYLQMNSLRPEDTALYYCTIGGSLSRSSQGTLVTVSSA | 8.85

Lab note: next binder to report on.
Q: Fill blank: measured pIC50 of the binder A041600035 (VHH, Trivalent ISVD construct (two anti-CX3CR1 ISVDs, one anti-albumin ISVD), C-terminal alanine included in the entry; also called 54A12_SO (E1D)-9GS-54A12_SO-9GS-ALB23002-A) DVQLVESGGGSVQPGGSLRLSCAASGSIFSSTAMAWYRQAPGKQRDLVAVISTVGITKYADSVKGRFTISRDNAKNTVYLQMNSLRPEDTALYYCTSDARRGWDTRYWGQGTLVTVSSGGGGSGGGSEVQLVESGGGSVQPGGSLRLSCAASGSIFSSTAMAWYRQAPGKQRDLVAVISTVGITKYADSVKGRFTISRDNAKNTVYLQMNSLRPEDTALYYCTSDARRGWDTRYWGQGTLVTVSSGGGGSGGGSEVQLVESGGGVVQPGGSLRLSCAASGFTFRSFGMSWVRQAPGKGPEWVSSISGSGSDTLYADSVKGRFTISRDNSKNTLYLQMNSLRPEDTALYYCTIGGSLSRSSQGTLVTVSSA is ____.
A: 8.60
